Tested on: HCT-8 host cells (Hs18S)
Conditions: primary screening at 10 uM, treated vs control
Reported Hs18S ΔCT values are given for each entry in this list.
measured parameter: Hs18S ΔCT

substance="POLYMYXIN B SULFATE" measured_parameter="Hs18S ΔCT" test_value=-0.20
substance=3-ACETYLGEDUNOL measured_parameter="Hs18S ΔCT" test_value=1.19
substance="STROPH[…] LACTONE ACETATE" measured_parameter="Hs18S ΔCT" test_value=2.37
substance="BLEOMYCIN (bleomycin B2 shown)" measured_parameter="Hs18S ΔCT" test_value=-0.22
substance="BERBAMINE HYDROCHLORIDE" measured_parameter="Hs18S ΔCT" test_value=-0.21
substance="TANNIC ACID" measured_parameter="Hs18S ΔCT" test_value=0.27
substance=HECOGENIN measured_parameter="Hs18S ΔCT" test_value=-0.23
substance=DEGUELIN(-) measured_parameter="Hs18S ΔCT" test_value=0.60
substance="POMIFERIN TRIMETHYL ETHER" measured_parameter="Hs18S ΔCT" test_value=0.17
substance=CYANOCOBALAMIN measured_parameter="Hs18S ΔCT" test_value=-0.32
substance="COLISTIN SULFATE" measured_parameter="Hs18S ΔCT" test_value=0.01
substance=PHYTOL measured_parameter="Hs18S ΔCT" test_value=-0.42
substance=BACITRACIN measured_parameter="Hs18S ΔCT" test_value=0.02
substance=KHAYANTHONE measured_parameter="Hs18S ΔCT" test_value=-0.01
substance="AGELASINE (stereochemistry of diterpene unknown)" measured_parameter="Hs18S ΔCT" test_value=0.27
substance=IVERMECTIN measured_parameter="Hs18S ΔCT" test_value=-0.05
substance="AVERMECTIN A1a" measured_parameter="Hs18S ΔCT" test_value=0.02

###

System: HCT-8 host cells (Hs18S)
Settings: primary screening at 10 uM, treated vs control
measured parameter: Hs18S ΔCT

compound=C[C@@]1(O)CCOC(=O)C1 measured_parameter="Hs18S ΔCT" test_value=0.26
compound="CC1=CC2C(C(C)C)CCC(C)(O)C2CC1 (centres unmarked)" measured_parameter="Hs18S ΔCT" test_value=-0.42
compound=CS(C)(=O)=O measured_parameter="Hs18S ΔCT" test_value=0.90
compound=Cc1c[nH]c2ccccc12 measured_parameter="Hs18S ΔCT" test_value=0.30
compound=COc1ccc(-c2cc(=O)c3c(O)c(OC)c(OC)c(OC)c3o2)cc1OC measured_parameter="Hs18S ΔCT" test_value=-0.06
compound=COc1cc(/C=C/C(=O)O)ccc1O measured_parameter="Hs18S ΔCT" test_value=-0.04
compound="CC1CCC23CCC4(C)C5(C)CCC6C(C)(C)C(=O)CCC6(C)C5CCC4(OC2=O)C3C1C (centres unmarked) [3-OXOURSAN (28-13)OLIDE]" measured_parameter="Hs18S ΔCT" test_value=6.62
compound="CC(C)(O)[C@@H]1CC[C@](C)([C@H]2[C@@H](O)C[C@@]3(C)[C@@H]4C[C@H](O[C@@H]5O[C@H](CO)[C@@H](O)[C@H](O)[C@H]5O)[C@H]5C(C)(C)[C@@H](O[C@@H]6OC[C@@H](O)[C@H](O)[C@H]6O)CC[C@@]56C[C@@]46CC[C@]23C)O1 [ASTRAGALOSIDE IV]" measured_parameter="Hs18S ΔCT" test_value=-0.19

###

Assay: in vitro
Conditions: human
measured parameter: cytotoxicity at 41 h, 10 µM (%)

compound=C=CC1=C(C)c2cc3[nH]c(cc4nc(cc5[nH]c(cc1n2)c(C)c5CCC(=O)O)C(CCC(=O)O)=C4C)c(C)c3C=C units_text=% test_value=-0.1
compound=COc1ccc([C@@H]2CC(=O)c3c(O)cc(O)cc3O2)cc1O units_text=% test_value=-1.2
compound=CC(C)=CCc1c2c(c3occ(-c4ccc(O)cc4)c(=O)c3c1O)C=CC(C)(C)O2 units_text=% test_value=-108
compound="COc1ccc2c(=O)c(CC(=O)O)coc2c1 [ANHYDROBRAZILIC ACID]" units_text=% test_value=-0.5
compound="COc1ccc([C@@H](C)C(=O)c2ccc(O)cc2O)cc1 [ANGOLENSIN (R)]" units_text=% test_value=-12.5
compound=CC(C)c1c(O)ccc2c1CC[C@H]1C(C)(C)CCC[C@]21C units_text=% test_value=-28.4
compound=O=c1c(O)c(-c2ccc(O)cc2)oc2cc(O)cc(O)c12 units_text=% test_value=31.2
compound="C=C1C(N)CC2CC1C2(C)C (stereo not drawn)" units_text=% test_value=25.3
compound="CC(=O)O[C@H]1CC[C@]2(C)[C@H]3CC=C4[C@@H]5CC(C)(C)CC[C@]5(C)CC[C@@]4(C)[C@]3(C)CC[C@H]2C1(C)C [beta-AMYRIN ACETATE]" units_text=% test_value=0.5

###

Tested on: HCT-8 host cells (Hs18S)
Settings: primary screening at 10 uM, treated vs control
Reported Hs18S ΔCT values are given for each entry in this list.
measured parameter: Hs18S ΔCT

compound="CNCc1ccccc1.Cl [N-METHYLBENZYLAMINE HYDROCHLORIDE]" measured_parameter="Hs18S ΔCT" test_value=-0.08
compound=CC(C)C1=CC2=CC[C@@H]3[C@](C)(CCC[C@@]3(C)C(=O)O)[C@H]2CC1 measured_parameter="Hs18S ΔCT" test_value=-0.39
compound=O=C(O)c1ccc2c(c1)OCO2 measured_parameter="Hs18S ΔCT" test_value=-0.04
compound="COc1ccc(-c2cc(=O)c3c(O)cc(OC)c(OC)c3o2)c(OC)c1 [5-HYDROXY-2',4',7,8-TETRAMETHOXYFLAVONE]" measured_parameter="Hs18S ΔCT" test_value=0.20
compound="COc1cc2cc3c4cc(OC)c(OC)cc4cc[n+]3c(C)c2cc1OC.[Cl-] [CORALYNE CHLORIDE]" measured_parameter="Hs18S ΔCT" test_value=-0.31
compound="C=C(C)[C@@H]1CC[C@]2(C)CC[C@]3(C)[C@H](CC[C@@H]4[C@@]5(C)CC[C@H](OC(C)=O)C(C)(C)[C@@H]5CC[C@]43C)[C@@H]12 [LUPEOL ACETATE]" measured_parameter="Hs18S ΔCT" test_value=-0.17
compound="C=CCCCCCCCCCCCC(O)CC(O)COC(C)=O (stereo not shown) [AVOCADENE ACETATE]" measured_parameter="Hs18S ΔCT" test_value=-0.47
compound="CC1=CC(=O)CC(C)(C)C1(O)/C=C/C(C)=C\\C(=O)O (racemic) [ABSCISIC ACID (cis,trans; +/-)]" measured_parameter="Hs18S ΔCT" test_value=0.65
compound="CC(=O)O[C@]1(C)CC[C@@]23C[C@@H]1C(C)(C)[C@@H]2CC[C@H]3C [CEDRYL ACETATE]" measured_parameter="Hs18S ΔCT" test_value=0.05
compound="O.O=c1ccc2cc(O[C@@H]3OC(CO)[C@@H](O)[C@@H](O)C3O)c(O)cc2o1 (stereo partly shown) [ESCULIN MONOHYDRATE]" measured_parameter="Hs18S ΔCT" test_value=-0.42
compound=C=C1C[C@]23C[C@@]1(O)CC[C@H]2[C@@]12C=C[C@H](O)[C@@](C)(C(=O)O1)[C@H]2[C@@H]3C(=O)O measured_parameter="Hs18S ΔCT" test_value=0.09
compound=C[C@H]1CC[C@]2(NC1)O[C@H]1C[C@H]3[C@@H]4CC[C@H]5C[C@@H](O[C@@H]6O[C@H](CO)[C@H](O[C@@H]7O[C@H](CO)[C@@H](O)[C@H](O[C@@H]8OC[C@@H](O)[C@H](O)[C@H]8O)[C@H]7O[C@@H]7O[C@H](CO)[C@@H](O)[C@H](O)[C@H]7O)[C@H](O)[C@H]6O)CC[C@]5(C)[C@H]4CC[C@]3(C)[C@H]1[C@@H]2C measured_parameter="Hs18S ΔCT" test_value=0.04
compound=C[C@H]1C(=O)CC[C@@H]2[C@]1(C)CC[C@H]1[C@@]2(C)CC[C@@]2(C)[C@@H]3CC(C)(C)CC[C@]3(C)CC[C@]12C measured_parameter="Hs18S ΔCT" test_value=-0.23

###

Assay: in vitro
Conditions: human
Where a name gives a salt, the structure may show the parent alone.
measured parameter: cytotoxicity at 41 h, 10 µM (%)

compound="O=c1c(-c2ccc(O)cc2)coc2c([C@@H]3O[C@H](CO)[C@@H](O)[C@H](O)[C@H]3O)c(O)ccc12 [PUERARIN]" units_text=% test_value=-37.4
compound="OCC(O)C(O)C(O)C(O)C(O)CO (centres unmarked) [PERSEITOL]" units_text=% test_value=-17.1
compound="CC1/C(=N/O)C[C@@H]2C[C@H]1C2(C)C (some centres unmarked) [3-PINANONE OXIME]" units_text=% test_value=1.5
compound="CC[C@]12CCCN3CCc4c(n(c5ccccc45)[C@@](O)(C(=O)OC)C1)[C@@H]32 [VINCAMINE]" units_text=% test_value=8.2
compound="CC(C)=CCC/C(C)=C/CC/C(C)=C/CC/C(C)=C/CC1=C(C)C(=O)c2ccccc2C1=O [MENAQUINONE-4]" units_text=% test_value=4.1
compound="C[C@@H]1O[C@@H](O[C@H]2[C@H](Oc3cc(O)c4c(=O)cc(-c5ccc(O)cc5)oc4c3)O[C@H](CO)[C@@H](O)[C@@H]2O)[C@H](O)[C@H](O)[C@H]1O [RHOIFOLIN]" units_text=% test_value=-20
compound="COc1cc(O)c2c(=O)cc(C)oc2c1CC=C(C)C [HETEROPEUCENIN, METHYL ETHER]" units_text=% test_value=-7.2
compound="CC(C)c1ccc2c(c1)CC[C@H]1[C@](C)(CN)CCC[C@]21C [18-AMINOABIETA-8,11,13-TRIENE SULFATE]" units_text=% test_value=-13.9
compound="COc1c2ccoc2c(OC)c2oc(=O)ccc12 [ISOPIMPINELLIN]" units_text=% test_value=-18.1
compound="COc1ccc(-c2cc(=O)c3ccccc3o2)cc1 [4'-METHOXYFLAVONE]" units_text=% test_value=-6.3
compound="C=C[C@@]1(C)CC(=O)[C@]2(O)[C@@]3(C)[C@@H](O)CCC(C)(C)[C@@H]3[C@H](O)[C@H](OC(C)=O)[C@@]2(C)O1 [COLFORSIN]" units_text=% test_value=9.4
compound="COc1c(O)cc(O)cc1O [IRETOL]" units_text=% test_value=-24.7
compound="C[C@]12CC[C@@H]3c4ccc(O)cc4CC[C@H]3[C@@H]1CC[C@@H]2O [ESTRADIOL]" units_text=% test_value=-13.8
compound="COc1ccc([C@H]2Oc3cc(OC)cc(OC)c3C[C@H]2O)cc1 [EPIAFZELECHIN TRIMETHYL ETHER]" units_text=% test_value=13.4
compound="C=CC(C1=CC(=O)C(OC)=CC1=O)c1ccc(OC)cc1 (centres unmarked) [4,4'-DIMETHOXYDALBERGIONE]" units_text=% test_value=-0.7
compound="NCCCNCCCCNCCCN [SPERMINE]" units_text=% test_value=-35.1
compound="COC(=O)/C=C/C(C)=C\\C=C\\C(C)=C\\C=C\\C=C(C)\\C=C\\C=C(C)\\C=C\\C(=O)O [BIXIN]" units_text=% test_value=34.2

Values compiled from paper PMC6736568.
